Attribution: patent US7655695B2

- method.notes: Pharmacokinetics after single intravenous administration in male CD-1 mice
- Type: in vivo, mouse
- setup.conditions: mouse, plasma, 5 mg/kg single IV, read-out: Vdss
- Experimental: The pharmacokinetics (PK) of Compound 6 was investigated in the CD-1 male mouse. A single intravenous administration of 5 mg/kg was followed by sequential blood collections and analysis of plasma by LC/MS/MS.

>  <compound>
CC1=C(CN(O)C(N)=O)C2=C(C)C3(CC3)[C@@](C)(O)C(=O)C2=C1 [Compound 6, N-hydroxy-N-(methylacylfulvene)urea]

>  <unit.name>
L/kg

>  <Vd>
0.548

$$$$

----------
- method.notes: Pharmacokinetics after single intravenous administration in male CD-1 mice
- Assay type: in vivo, mouse
- setup.conditions: mouse, plasma, 5 mg/kg single IV
metric.name: half-life (h)

>  <compound>
CC1=C(CN(O)C(N)=O)C2=C(C)C3(CC3)[C@@](C)(O)C(=O)C2=C1 [Compound 6, N-hydroxy-N-(methylacylfulvene)urea]

>  <metric.name>
half-life

>  <unit.name>
h

>  <readout.value>
2.36

$$$$
